All figures here come from patent US12497403B2.

Reported values: pIC50 for human Factor XIa (Homo sapiens, UniProt P03951), one per item.
Give only the number. pIC50 is defined as minus log10 of concentration in molar units.

Examples with their reported pIC50 follow.
CCOC(=O)c1[nH]c2nc1-c1ccc(NC(=O)OC)cc1NC(=O)C(C)(C)CCC[C@@H]2c1ccc(-c2cc(Cl)cnc2OC(F)F)c[n+]1[O-] [Example 4] | 8.89
COC(=O)Nc1ccc2c(c1)NC(=O)C(C)(C)CCC[C@H](c1ccc(-c3cccc(Cl)c3F)c[n+]1[O-])c1nc-2c(C(=O)O)[nH]1 [Example 9] | 9.60
COC(=O)Nc1ccc2c(c1)NC(=O)C(C)(C)CCC[C@H](c1ccc(-c3cc(F)ccc3-n3cc(C(F)(F)F)cn3)c[n+]1[O-])c1nc-2c(C(=O)OC)[nH]1 [Example 6] | 9.09

Next:
Output reported pIC50 of the compound COC(=O)Nc1ccc2c(c1)NC(=O)C(C)(C)CCC[C@H](c1ccc(-c3cc(F)ccc3-n3cc(C(F)(F)F)cn3)c[n+]1[O-])c1nc-2c(C(=O)O)[nH]1 [Example 8] on human Factor XIa (Homo sapiens, UniProt P03951).
Sequence (P03951 388-625 limits assumed): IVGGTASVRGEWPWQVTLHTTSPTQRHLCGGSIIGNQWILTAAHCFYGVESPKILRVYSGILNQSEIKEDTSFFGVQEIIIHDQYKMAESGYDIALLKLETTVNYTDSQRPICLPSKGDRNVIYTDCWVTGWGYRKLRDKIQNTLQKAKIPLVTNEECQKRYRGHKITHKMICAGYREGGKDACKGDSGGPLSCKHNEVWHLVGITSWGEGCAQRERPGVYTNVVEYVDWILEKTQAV
Sequence (P03951 19-387 partner limits assumed): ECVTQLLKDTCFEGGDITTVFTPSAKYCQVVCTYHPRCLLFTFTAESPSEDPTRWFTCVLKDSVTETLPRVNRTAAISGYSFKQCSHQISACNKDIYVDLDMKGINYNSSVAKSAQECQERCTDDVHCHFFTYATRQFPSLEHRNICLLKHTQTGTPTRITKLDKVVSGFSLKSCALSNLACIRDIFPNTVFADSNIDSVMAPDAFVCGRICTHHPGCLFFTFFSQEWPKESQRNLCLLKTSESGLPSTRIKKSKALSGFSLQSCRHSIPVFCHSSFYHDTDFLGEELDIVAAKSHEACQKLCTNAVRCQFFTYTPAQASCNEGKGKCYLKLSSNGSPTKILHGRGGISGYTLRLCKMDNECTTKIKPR
9.41
